Hello, the source for this data is ChEMBL document CHEMBL1949581, in case you need it.

# Lookup of reported pKi keyed by entry
TESTED_ON: UniProt:A6YCJ1
Sequence (A6YCJ1 whole entry): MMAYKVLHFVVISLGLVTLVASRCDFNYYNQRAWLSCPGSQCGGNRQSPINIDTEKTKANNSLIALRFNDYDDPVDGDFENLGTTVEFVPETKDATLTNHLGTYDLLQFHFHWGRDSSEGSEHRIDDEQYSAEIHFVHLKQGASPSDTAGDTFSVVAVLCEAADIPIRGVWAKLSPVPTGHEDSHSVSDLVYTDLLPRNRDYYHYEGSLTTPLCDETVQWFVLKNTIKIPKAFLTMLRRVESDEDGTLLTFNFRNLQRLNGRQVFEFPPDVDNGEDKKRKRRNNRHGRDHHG
pKi: −log10 of the molar value.
OBSERVABLE: pKi

* O=S(=O)(O)OOS(=O)(=O)O [SODIUM PERSULFATE] | 1.15
* NS(N)(=O)=O [SULFAMIDE] | 5.05
* [O-][Cl+3]([O-])([O-])O [SODIUM PERCHLORATE] | 2.29
